Data provenance: patent US20120277142A1

Biological target: T1, TNF-α (UniProt P01375 77-233, limits assumed)
T1 construct: also called tumor necrosis factor; ligand
Experiment: competition ELISA: sample vs plate-bound TNFRI190 for TNF-α, from IC50, relative to wild-type TNFRI171
Experimental: Each well was washed three times with 300 μL of washing buffer (0.05% Tween-20, PBS, pH 7.4) and incubated at room temperature for 2 hours with 300 μL of a blocking buffer (5% skim milk, PBS, pH 7.4). Then, each well was washed as mentioned above. A sample of interest was diluted to concentrations of 500 nM, 125 nM, 31 nM, 7.8 nM, 1.9 nM, 0.48 nM, 0.12 nM, and 0.03 nM in series and loaded in an amount of 100 μL into each well in duplicate. […]
Value Kind: Relative Affinity for Ligand (%)
Numbers only, in %.

Batch of 3 binders: report Relative Affinity for Ligand (%) for each.
1. TNFRI171-S52 (receptor, Met-TNFRI171 superlead mutant made in E. coli) MDSVCPQGKYIHPQNNSICCTKCHKGTYLYNDCPGPGQDTDCRECESGSFTAIPNFLPGCLSCSKCRKEMGQVEISSCTVDRDTVCGCRKNQYRHYWSENLFQCFNCSLCLNGTVHLSCQEKQNTVCTCHAGFFLRENECVSCSNCKKSLECTKLCLPQIENVKGTENSGTT
2. Met-TNFRI171 (receptor, also called Wild-type (TNFRI171); wild-type TNFRI) MDSVCPQGKYIHPQNNSICCTKCHKGTYLYNDCPGPGQDTDCRECESGSFTASENHLRHCLSCSKCRKEMGQVEISSCTVDRDTVCGCRKNQYRHYWSENLFQCFNCSLCLNGTVHLSCQEKQNTVCTCHAGFFLRENECVSCSNCKKSLECTKLCLPQIENVKGTEDSGTT
3. TNFRI171-S40 (receptor, Met-TNFRI171 superlead mutant made in E. coli) MDSVCPQGKYIHPQNNSICCTKCHKGTYLYNDCPGPGQDTDCRECESGSFTAMENFLPACLSCSKCRKEMGQVEISSCTVDRDTVCGCRKNQYRHYWSENLFQCFNCSLCLNGTVHLSCQEKQNTVCTCHAGFFLRENECVSCSNCKKSLECTKLCLPQIENVKGTENSGTT

[626, 100, 773]
